Tested on: ATP;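 note: ATP exposure 15 min at 22 °C before imaging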
Assay: switch fluorescence ratio, 500 uM ATP over buffer (Cy3 cluster intensity, sum of 5 cycles each) (fold (ratio)); higher = stronger signal-on switching upon ATP binding; sequences stand for … in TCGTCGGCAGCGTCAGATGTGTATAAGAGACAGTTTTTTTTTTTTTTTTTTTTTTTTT…TC
Settings: aptamer strand: ATP DNA aptamer (quencher-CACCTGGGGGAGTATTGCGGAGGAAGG + anchor), 100 nM annealed; ATP concentration: 500 uM
reported-endpoint: switch fluorescence ratio
Answer as a number with no unit attached.

Examples from the recorded data:
GGCGGCCGAT	0.971
GCGGGCAGGC	0.998
GAACGACCGC	1.34
CTGTCGACTG	1.04
AAAAAGAAGA	0.976
ATTCCTAGGG	1.05

**Q:** Record request: switch fluorescence ratio value, item `TCAATCTGGG`
**A:** 1.01

**Q:** Record request: switch fluorescence ratio value, item `CTGAGTTGGG`
**A:** 0.979

**Q:** Record request: switch fluorescence ratio value, item `GCCGGGGGGA`
**A:** 1.03

* * *

The entries below are paired with their reported switch fluorescence ratio.
Test system: ATP;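 note: ATP exposure 15 min at 22 °C before imaging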
Test: switch fluorescence ratio, 500 uM ATP over buffer (Cy3 cluster intensity, sum of 5 cycles each) (fold (ratio)); higher = stronger signal-on switching upon ATP binding; sequences stand for … in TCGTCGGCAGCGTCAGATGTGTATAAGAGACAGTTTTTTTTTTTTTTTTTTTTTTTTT…TC
Conditions: aptamer strand: ATP DNA aptamer (quencher-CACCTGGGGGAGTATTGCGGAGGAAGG + anchor), 100 nM annealed; ATP concentration: 500 uM

Examples from the recorded data:
GACTGGGACT	1.08
TTTTTTCGGC	0.988
ATAATTGTCT	1.04
GTGGGGTCAA	0.999
GTTGTTATAT	1.02
TTGAAATTTT	1
CGTAGTCTGG	1.05
GTTGTACGAT	0.997

**Q:** Record request: switch fluorescence ratio value, item `TAAAAGGTCC`
**A:** 1.04

**Q:** Record request: switch fluorescence ratio value, item `GTTTTTTTTG`
**A:** 0.999

* * *

The entries below are paired with their reported switch fluorescence ratio.
Tested on: ATP;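 note: ATP exposure 15 min at 22 °C before imaging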
Test: switch fluorescence ratio, 500 uM ATP over buffer (Cy3 cluster intensity, sum of 5 cycles each) (fold (ratio)); higher = stronger signal-on switching upon ATP binding; sequences stand for … in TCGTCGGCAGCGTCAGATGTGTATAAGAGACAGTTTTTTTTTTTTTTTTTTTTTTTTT…TC
Details: aptamer strand: ATP DNA aptamer (quencher-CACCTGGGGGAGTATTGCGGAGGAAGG + anchor), 100 nM annealed; ATP concentration: 500 uM
Answer as a number with no unit attached.

**Q:** Record request: switch fluorescence ratio value, item `TAAATGGCGT`
**A:** 1.01

**Q:** Record request: switch fluorescence ratio value, item `TCTGGGGGGT`
**A:** 1.02

**Q:** Record request: switch fluorescence ratio value, item `ACGGGGGTTC`
**A:** 1.01

* * *

Test system: ATP;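 note: ATP exposure 15 min at 22 °C before imaging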
Experiment: switch fluorescence ratio, 500 uM ATP over buffer (Cy3 cluster intensity, sum of 5 cycles each) (fold (ratio)); higher = stronger signal-on switching upon ATP binding; sequences stand for … in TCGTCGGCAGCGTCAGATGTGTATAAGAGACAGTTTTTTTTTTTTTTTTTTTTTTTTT…TC
Conditions: aptamer strand: ATP DNA aptamer (quencher-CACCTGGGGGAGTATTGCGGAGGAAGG + anchor), 100 nM annealed; ATP concentration: 500 uM
reported-endpoint: switch fluorescence ratio
Answer as a number with no unit attached.

Examples from the recorded data:
GGGTAGGTTT	1.02
TTTTTGAGC	1.01
ATACTTTTGG	1

**Q:** Which switch fluorescence ratio is reported with ATP for this entry: `TTCATAAATT` ?
**A:** 1.02

**Q:** Which switch fluorescence ratio is reported with ATP for this entry: `TTTTTGAGGA` ?
**A:** 0.995

**Q:** Which switch fluorescence ratio is reported with ATP for this entry: `AAGGGATACG` ?
**A:** 1.02

**Q:** Which switch fluorescence ratio is reported with ATP for this entry: `TAAGTAAATA` ?
**A:** 0.976

* * *

System: ATP;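 note: ATP exposure 15 min at 22 °C before imaging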
Assay: switch fluorescence ratio, 500 uM ATP over buffer (Cy3 cluster intensity, sum of 5 cycles each) (fold (ratio)); higher = stronger signal-on switching upon ATP binding; sequences stand for … in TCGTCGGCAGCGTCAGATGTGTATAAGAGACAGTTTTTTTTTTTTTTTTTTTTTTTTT…TC
Conditions: aptamer strand: ATP DNA aptamer (quencher-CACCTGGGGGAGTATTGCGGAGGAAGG + anchor), 100 nM annealed; ATP concentration: 500 uM
The entries below are paired with their reported switch fluorescence ratio.
Answer as a number with no unit attached.

TCAGTCTGCC	1.03
ACGAAGAAGT	1.01

**Q:** Record request: switch fluorescence ratio value, item `TGTAAAAAAA`
**A:** 1.04

* * *

Tested on: ATP;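 note: ATP exposure 15 min at 22 °C before imaging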
Assay: switch fluorescence ratio, 500 uM ATP over buffer (Cy3 cluster intensity, sum of 5 cycles each) (fold (ratio)); higher = stronger signal-on switching upon ATP binding; sequences stand for … in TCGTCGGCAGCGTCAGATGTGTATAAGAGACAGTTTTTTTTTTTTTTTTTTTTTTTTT…TC
Settings: aptamer strand: ATP DNA aptamer (quencher-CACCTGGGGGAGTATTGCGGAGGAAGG + anchor), 100 nM annealed; ATP concentration: 500 uM
The entries below are paired with their reported switch fluorescence ratio.

TTGGTATACG	0.997
TTAGTGTACT	1.07
ATTTGTCAAG	0.999

// below: switch fluorescence ratio requested for another sequence
**Q:** Record request: switch fluorescence ratio value, item `GGCGGTTACT`
**A:** 1.04

* * *

System: ATP;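 note: ATP exposure 15 min at 22 °C before imaging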
Experiment: switch fluorescence ratio, 500 uM ATP over buffer (Cy3 cluster intensity, sum of 5 cycles each) (fold (ratio)); higher = stronger signal-on switching upon ATP binding; sequences stand for … in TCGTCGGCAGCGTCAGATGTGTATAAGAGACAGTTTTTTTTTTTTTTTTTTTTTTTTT…TC
Settings: aptamer strand: ATP DNA aptamer (quencher-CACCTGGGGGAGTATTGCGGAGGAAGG + anchor), 100 nM annealed; ATP concentration: 500 uM
The entries below are paired with their reported switch fluorescence ratio.
Answer as a number with no unit attached.

GTATTTTTTG	0.996
TGATTCAAAT	1.02
TGGGGCTTTT	1.02

**Q:** Record request: switch fluorescence ratio value, item `TTCGAGGAGG`
**A:** 0.981

**Q:** Record request: switch fluorescence ratio value, item `AAGGGGGCCT`
**A:** 1

* * *

The entries below are paired with their reported switch fluorescence ratio.
Tested on: ATP;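 note: ATP exposure 15 min at 22 °C before imaging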
Assay: switch fluorescence ratio, 500 uM ATP over buffer (Cy3 cluster intensity, sum of 5 cycles each) (fold (ratio)); higher = stronger signal-on switching upon ATP binding; sequences stand for … in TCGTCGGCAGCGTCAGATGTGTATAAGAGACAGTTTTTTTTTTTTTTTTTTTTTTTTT…TC
Conditions: aptamer strand: ATP DNA aptamer (quencher-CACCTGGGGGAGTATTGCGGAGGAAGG + anchor), 100 nM annealed; ATP concentration: 500 uM
Answer as a number with no unit attached.

GGGGAGGTTT	0.966
TTTTTAGGAT	1.11
TTAGGAAGTG	0.999
TGTTTTGCGT	1.01
GGGCTAGACG	0.997
ATCTGTGGTT	0.978
ACTGATGGTA	1.02
AGATGGAATT	0.994

**Q:** Record request: switch fluorescence ratio value, item `TTTGGGGAGG`
**A:** 1.02

**Q:** Record request: switch fluorescence ratio value, item `TCCTTTACTG`
**A:** 0.978

**Q:** Record request: switch fluorescence ratio value, item `ATTGAAAAAG`
**A:** 1.01

**Q:** Record request: switch fluorescence ratio value, item `CCAGGGGGTC`
**A:** 1.11

**Q:** Record request: switch fluorescence ratio value, item `TTGCTTTAGA`
**A:** 0.974

* * *

Tested on: ATP;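 note: ATP exposure 15 min at 22 °C before imaging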
Assay: switch fluorescence ratio, 500 uM ATP over buffer (Cy3 cluster intensity, sum of 5 cycles each) (fold (ratio)); higher = stronger signal-on switching upon ATP binding; sequences stand for … in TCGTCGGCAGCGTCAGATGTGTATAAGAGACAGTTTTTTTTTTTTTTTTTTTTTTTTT…TC
Conditions: aptamer strand: ATP DNA aptamer (quencher-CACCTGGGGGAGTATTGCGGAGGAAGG + anchor), 100 nM annealed; ATP concentration: 500 uM
reported-endpoint: switch fluorescence ratio
Answer as a number with no unit attached.

CAATGAAAGC	1.04
CCGAAATTTT	1.05

**Q:** Record request: switch fluorescence ratio value, item `GGGAATACTA`
**A:** 1.38

**Q:** Record request: switch fluorescence ratio value, item `GGGTGTGAGT`
**A:** 1.03

**Q:** Record request: switch fluorescence ratio value, item `GATGGATGGA`
**A:** 1.05
